Molecular target: T1, di cyNKG2D ECD Fc avi (cynomolgus, biotinylated at the avi-tag)
T1 construct: Dimeric fusion of cynomolgus NKG2D ECD to the C-terminus of an avi-tagged human IgG1 Fc; also called recombinant cynomolgus NKG2D
T1 sequence (chain, as listed by the source limits assumed): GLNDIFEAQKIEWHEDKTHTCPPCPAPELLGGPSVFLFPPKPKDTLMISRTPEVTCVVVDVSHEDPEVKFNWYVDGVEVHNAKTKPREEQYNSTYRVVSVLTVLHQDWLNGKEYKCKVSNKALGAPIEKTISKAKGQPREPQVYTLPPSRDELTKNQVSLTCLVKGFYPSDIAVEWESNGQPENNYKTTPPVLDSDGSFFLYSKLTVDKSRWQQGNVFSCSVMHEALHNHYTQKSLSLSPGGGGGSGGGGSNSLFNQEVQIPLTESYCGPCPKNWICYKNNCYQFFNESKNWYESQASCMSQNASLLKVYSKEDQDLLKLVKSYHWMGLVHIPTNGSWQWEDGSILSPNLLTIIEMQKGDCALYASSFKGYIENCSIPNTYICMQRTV
Experiment: SPR Biacore; IgG captured by anti-Fab, antigen analyte
Experimental: Around 1500 resonance units (RU) of the capture antibody (10 μg/ml human Fab Capture Kit, GE Healthcare Life Sciences, #28958325) were coupled onto a CM5 chip (GE Healthcare, #BR-1005-30) using a BIACORE® B4000 instrument (GE Healthcare) at pH 5.0 by using an amine coupling kit supplied by GE Healthcare. […] The dissociation phase was monitored for up to 450 s and triggered by switching from the sample solution to running buffer. […]
Exercise: for every item that follows, state its recorded pKd.
The meaning of pKd here: minus log10 of the concentration in molar units.

IN: Name the recorded pKd of the item anti-NKG2D antibody clone 320 (antibody, V domains shown, From transgenic rabbits; also called 320 IgG) VH: EVQLLESGGGLVQPGGSLRLSCATSGFTFSDYAMSWVRQAPGKGLEWVSYNSFSVGSTDYADSVKGRFTISRDNSKNTLYLQMNSLRAEDTAVYYCSKHSGNYYTGPFHYWGQGTLVTVSS VL: DIQLTQSPSFLSASVGDRVTITCRASQGISSYLAWYQQKPGKAPKLLIYAASSLESGVPSRFSGSGSGTDFTLTISSLQPEDFATYYCQQSYSTPITFGQGTRLEIK in your answer.
OUT: 7.21

IN: Name the recorded pKd of the item anti-NKG2D antibody clone 018 (antibody, V domains shown, From transgenic rabbits) VH: QQLEQSGGGLVTPGGSLKVCCKASGFDFTTYWMTWVRQAPEKGLEWIGCIHGGDSGATYYANWVNGRFTLSRDIDQSTGCLQLNSLTAADTAMYYCARPGYPSWSKTFDLWGQGTMVTVSS VL: DIQMTQSPSSLSASVGDRVTITCQASQDISNALNWYQQKPGKAPKLLIYAASTLQSGVPSRFSGSGSGTDFTLTISSLQPEDFATYYCQHSNSFPLTFGGGTKVEIK in your answer.
OUT: 7.68

IN: Name the recorded pKd of the item anti-NKG2D antibody clone 001 (antibody, V domains shown, From transgenic rabbits) VH: QQLEQSGGGLVTPGGSLKLCCIGSGFDFNTYWMTWVRQAPGKGLEWIGCIHGGSSGSTYYASWVNGRFTLSRDIDQSTGCLQVNSLTAADTAMYYCARPGYRSWSKTFDLWGQGTMVTVSS VL: DIQMTQSPSSLSASVGDRVTITCRASQDISESLNWYQQKPGKAPKLLIYAASSLQSGVPSRFSGSGSGTDYTLTISSLQPEDFATYYCQQANSFPLTFGGGTKVEIK in your answer.
OUT: 8.35
